system: 966289-007-R4-J1-PDC complex spheroid viability; assay: Anticancer human tumor 966289-007-R4-J1-PDC patient-derived pancreatic adenocarcinoma cell line growth inhibition [RAS]; settings: second compound 0.0949 µM; first compound 1 µM; hits give low values;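 further: spheroids exposed to agents for one week before readout; percent viability relative to DMSO vehicle control wells as 100%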
Returns: string. Value is 1 (yes) if measured viability, T/C is below 80%, and 0 (no) if it is greater than or equal to it.

>  <compound>
Nc1ccn(C2OC(CO)C(O)C2(F)F)c(=O)n1 (stereo not given) + CCn1c(-c2cc(N3CCN(C)CC3)cnc2C(C)OC)c2c3cc(ccc31)-c1csc(n1)CC(NC(=O)C1CC1C)C(=O)N1CCCC(N1)C(=O)OCC(C)(C)C2

>  <class.label>
1 (yes)

$$$$
>  <compound>
C=CC(=O)Nc1cc(Nc2nccc(-c3cn(C)c4ccccc34)n2)c(OC)cc1N(C)CCN(C)C + CCn1c(-c2cccnc2C(C)OC)c2c3cc(ccc31)N1CCOC(CC(NC(=O)C(C(C)C)N(C)C(=O)C3(F)CCN(C(=O)C#CC(C)(C)N(C)C)CC3)C(=O)N3CCCC(N3)C(=O)OCC(C)(C)C2)C1

>  <class.label>
1 (yes)

$$$$
>  <compound>
NC1c2ccccc2OC12CCN(c1cnc3c(N4CCCc5ncccc54)n[nH]c3n1)CC2 (stereo not given) + CCn1c(-c2cccnc2C(C)OC)c2c3cc(ccc31)N1CCOC(CC(NC(=O)C(C(C)C)N(C)C(=O)C3(F)CCN(C(=O)C#CC(C)(C)N(C)C)CC3)C(=O)N3CCCC(N3)C(=O)OCC(C)(C)C2)C1

>  <class.label>
0 (no)

$$$$
>  <compound>
C[C@@H](NC(=O)c1ncnc(N)c1Cl)c1ncc(C(=O)Nc2cc(C(F)(F)F)c(Cl)cn2)s1 + CCn1c(-c2cc(N3CCN(C)CC3)cnc2C(C)OC)c2c3cc(ccc31)-c1csc(n1)CC(NC(=O)C1CC1C)C(=O)N1CCCC(N1)C(=O)OCC(C)(C)C2

>  <class.label>
0 (no)

$$$$
>  <compound>
C=CC(=O)N1CCN(c2nc(OCC3CCCN3C)nc3c(F)c(-c4nc(N)cc(C)c4C(F)(F)F)c(Cl)cc23)C(C)C1 (stereo not given) + CCn1c(-c2cc(N3CCN(C)CC3)cnc2C(C)OC)c2c3cc(ccc31)-c1csc(n1)CC(NC(=O)C1CC1C)C(=O)N1CCCC(N1)C(=O)OCC(C)(C)C2

>  <class.label>
0 (no)

$$$$
>  <compound>
CCN1CCN(Cc2ccc(Nc3ncc(F)c(-c4cc(F)c5nc(C)n(C(C)C)c5c4)n3)nc2)CC1 + CCn1c(-c2cc(N3CCN(C)CC3)cnc2C(C)OC)c2c3cc(ccc31)-c1csc(n1)CC(NC(=O)C1CC1C)C(=O)N1CCCC(N1)C(=O)OCC(C)(C)C2

>  <class.label>
0 (no)

$$$$
>  <compound>
CC(C)NCC(C(=O)N1CCN(c2ncnc3c2C(C)CC3O)CC1)c1ccc(Cl)cc1 (stereo not given) + CCn1c(-c2cccnc2C(C)OC)c2c3cc(ccc31)N1CCOC(CC(NC(=O)C(C(C)C)N(C)C(=O)C3(F)CCN(C(=O)C#CC(C)(C)N(C)C)CC3)C(=O)N3CCCC(N3)C(=O)OCC(C)(C)C2)C1

>  <class.label>
0 (no)

$$$$
>  <compound>
CC(C)NCC(C(=O)N1CCN(c2ncnc3c2C(C)CC3O)CC1)c1ccc(Cl)cc1 (stereo not given) + CCn1c(-c2cc(N3CCN(C)CC3)cnc2C(C)OC)c2c3cc(ccc31)-c1csc(n1)CC(NC(=O)C1CC1C)C(=O)N1CCCC(N1)C(=O)OCC(C)(C)C2

>  <class.label>
0 (no)

$$$$
>  <compound>
CCC(CC)c1cc(NC2CCC(N)C2)n2nccc2n1 (stereo not given) + CCn1c(-c2cccnc2C(C)OC)c2c3cc(ccc31)N1CCOC(CC(NC(=O)C(C(C)C)N(C)C(=O)C3(F)CCN(C(=O)C#CC(C)(C)N(C)C)CC3)C(=O)N3CCCC(N3)C(=O)OCC(C)(C)C2)C1

>  <class.label>
1 (yes)

$$$$
>  <compound>
C=CC(=O)Nc1cc(Nc2nccc(-c3cn(C)c4ccccc34)n2)c(OC)cc1N(C)CCN(C)C + CCn1c(-c2cc(N3CCN(C)CC3)cnc2C(C)OC)c2c3cc(ccc31)-c1csc(n1)CC(NC(=O)C1CC1C)C(=O)N1CCCC(N1)C(=O)OCC(C)(C)C2

>  <class.label>
0 (no)

$$$$
>  <compound>
Nc1ccn(C2OC(CO)C(O)C2(F)F)c(=O)n1 (stereo not given) + CCn1c(-c2cccnc2C(C)OC)c2c3cc(ccc31)N1CCOC(CC(NC(=O)C(C(C)C)N(C)C(=O)C3(F)CCN(C(=O)C#CC(C)(C)N(C)C)CC3)C(=O)N3CCCC(N3)C(=O)OCC(C)(C)C2)C1

>  <class.label>
1 (yes)

$$$$
>  <compound>
CC(Nc1ccc2c(c1)OCCn1cc(N3C(=O)OCC3C(F)F)nc1-2)C(N)=O (stereo not given) + CCn1c(-c2cc(N3CCN(C)CC3)cnc2C(C)OC)c2c3cc(ccc31)-c1csc(n1)CC(NC(=O)C1CC1C)C(=O)N1CCCC(N1)C(=O)OCC(C)(C)C2

>  <class.label>
0 (no)

$$$$
>  <compound>
O=C(c1ccc(F)c(F)c1Nc1ccc(I)cc1F)N1CC(O)([C@@H]2CCCCN2)C1 + CCn1c(-c2cc(N3CCN(C)CC3)cnc2C(C)OC)c2c3cc(ccc31)-c1csc(n1)CC(NC(=O)C1CC1C)C(=O)N1CCCC(N1)C(=O)OCC(C)(C)C2

>  <class.label>
1 (yes)

$$$$
>  <compound>
NC1c2ccccc2OC12CCN(c1cnc3c(N4CCCc5ncccc54)n[nH]c3n1)CC2 (stereo not given) + CCn1c(-c2cc(N3CCN(C)CC3)cnc2C(C)OC)c2c3cc(ccc31)-c1csc(n1)CC(NC(=O)C1CC1C)C(=O)N1CCCC(N1)C(=O)OCC(C)(C)C2

>  <class.label>
0 (no)

$$$$
